Molecular target: Hexose transporter 1 (Plasmodium falciparum)
Assay: ST_JUDE_LEISH: Cytotoxicity at 2uM final concentration against transgenic Leishmania Mexicana promastigotes LmPfHT that are glucose transport deficient and complemented with the Plasmodium falciparum hexose transporter. Activity is measured by DNA content using SYBR green in vitro
Assay type: functional
ASSAY_METRIC: inhibition (%)
The figure you give is taken to be in %; do not add the unit.

Below, 2 compounds whose answers are already recorded.
COc1ccc(NC(=O)CCNc2cc(C)nc(Nc3ccccc3)n2)cc1	5.64
COc1nc(NCC(C)C)nc(Oc2ccc(=O)n(Cc3ccccc3)n2)n1	1.88

According to the records, this compound `COc1cc(NC(=O)c2sc(-c3ccc(Cl)cc3)cc2NC(=O)c2cccc(N(C)C)c2)ccc1OCCN1CCCC1` displays inhibition of 0.22

According to the records, this compound `O=C(NC1CC1)c1ccc(N2CCOc3ccc(Cl)cc32)s1` displays inhibition of 1

According to the records, this compound `CN(C(=O)Nc1ccc(F)cc1)C1CCN(CCCCCNC(=O)/C=C/c2ccc(Cl)c(Cl)c2)CC1` displays inhibition of 1.65

According to the records, this compound Cc1cccc2c3c([nH]c12)C1(CCN(CCc2ccccc2)CC1)NC(C(=O)NCc1ccccc1)C3 (stereo not given) displays inhibition of 5.51

Recorded values, source ChEMBL document CHEMBL3433997.
